Data provenance is patent US20210040185A1.

Here, each record is paired with measured IC50 of viral neutralization (Env.IMC.LucR virus, TZM-BL reporter cells) data.
Target: HIV-1 envelope (Env) of virus CAP45.2.00.G3 (HIV-1)
Test: cell-based or functional assay
Numeric only. Scale: µg/mL

Kindly indicate its recorded IC50 of viral neutralization (Env.IMC.LucR virus, TZM-BL reporter cells). Item: L2A1_H60SN (antibody, V domains shown) VH: HVQLVQSGGGVKKIGAAVRISCEVTGYKFMDQLINWVRQAPGQGLEWMGWMNPTYGQVNYNWRFEGRVTMTRDMDTETAFMELRGLRVDDTAVYYCARGPSGENYPFHYWGQGVRVVVSS VL: ASALTQPASMSASPGQSVTISCSGTRHIISAWFQQYPGKPPKLIIFDDDKRPSGVPSRFSASRPGDTASLTISNVQPEDEATYICNTYEFFGGGTRLTVL 0.032

Kindly indicate its recorded IC50 of viral neutralization (Env.IMC.LucR virus, TZM-BL reporter cells). Item: L2A1_H60SA (antibody, V domains shown) VH: HVQLVQSGGGVKKIGAAVRISCEVTGYKFMDQLINWVRQAPGQGLEWMGWMNPTYGQVNYAWRFEGRVTMTRDMDTETAFMELRGLRVDDTAVYYCARGPSGENYPFHYWGQGVRVVVSS VL: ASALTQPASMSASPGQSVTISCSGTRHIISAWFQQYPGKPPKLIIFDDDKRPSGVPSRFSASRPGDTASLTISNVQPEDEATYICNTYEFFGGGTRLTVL 0.039

Kindly indicate its recorded IC50 of viral neutralization (Env.IMC.LucR virus, TZM-BL reporter cells). Item: NVS49-L2A1 (antibody, V domains shown) VH: HVQLVQSGGGVKKIGAAVRISCEVTGYKFMDQLINWVRQAPGQGLEWMGWMNPTYGQVNYSWRFEGRVTMTRDMDTETAFMELRGLRVDDTAVYYCARGPSGENYPFHYWGQGVRVVVSS VL: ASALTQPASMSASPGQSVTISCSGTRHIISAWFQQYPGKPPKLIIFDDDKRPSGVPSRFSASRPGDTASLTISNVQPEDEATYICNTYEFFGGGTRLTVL 0.069

Kindly indicate its recorded IC50 of viral neutralization (Env.IMC.LucR virus, TZM-BL reporter cells). Item: L2A1_H58NS (antibody, V domains shown) VH: HVQLVQSGGGVKKIGAAVRISCEVTGYKFMDQLINWVRQAPGQGLEWMGWMNPTYGQVSYSWRFEGRVTMTRDMDTETAFMELRGLRVDDTAVYYCARGPSGENYPFHYWGQGVRVVVSS VL: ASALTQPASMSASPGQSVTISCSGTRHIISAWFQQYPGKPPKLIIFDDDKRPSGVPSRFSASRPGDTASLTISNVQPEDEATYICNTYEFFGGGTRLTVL 0.04

---
Kindly indicate its recorded IC50 of viral neutralization (Env.IMC.LucR virus, TZM-BL reporter cells). Item: L2A1_H58NA (antibody, V domains shown) VH: HVQLVQSGGGVKKIGAAVRISCEVTGYKFMDQLINWVRQAPGQGLEWMGWMNPTYGQVAYSWRFEGRVTMTRDMDTETAFMELRGLRVDDTAVYYCARGPSGENYPFHYWGQGVRVVVSS VL: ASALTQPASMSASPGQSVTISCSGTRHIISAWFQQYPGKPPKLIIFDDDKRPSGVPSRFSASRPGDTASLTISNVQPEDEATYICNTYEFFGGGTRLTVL 0.05
